Test: Cytotoxicity against human A13A cells assessed as reduction in cell viability in presence of Cu2+ incubated for 72 hrs by cell titer-glo luminescent cell viability assay
Format: functional, cell-based
METRIC_NAME: IC50 (nM)
Hi! Could you send only the number? It should be in nM, unit omitted.

Value lookup for IC50; key = CN(C)C(=S)NN=Cc1nccc2cc(F)ccc12
1

====

Tested on: ASPC1
Assay: Cytotoxicity against human ASPC1 cells assessed as reduction in cell viability in presence of Cu2+ incubated for 72 hrs by cell titer-glo luminescent cell viability assay
Assay type: functional, cell-based
Conditions: ASPC1, 72 h
METRIC_NAME: IC50 (nM)
Provide the reading as a plain figure in nM.

Quick one: IC50 for CN(C)C(=S)NN=Cc1nccc2cc(F)ccc12 ?
1
